- studyTarget: Phosphatidylinositol 4,5-bisphosphate 3-kinase catalytic subunit alpha isoform (Homo sapiens)
- Sequence (P42336 whole entry, looked up, canonical isoform): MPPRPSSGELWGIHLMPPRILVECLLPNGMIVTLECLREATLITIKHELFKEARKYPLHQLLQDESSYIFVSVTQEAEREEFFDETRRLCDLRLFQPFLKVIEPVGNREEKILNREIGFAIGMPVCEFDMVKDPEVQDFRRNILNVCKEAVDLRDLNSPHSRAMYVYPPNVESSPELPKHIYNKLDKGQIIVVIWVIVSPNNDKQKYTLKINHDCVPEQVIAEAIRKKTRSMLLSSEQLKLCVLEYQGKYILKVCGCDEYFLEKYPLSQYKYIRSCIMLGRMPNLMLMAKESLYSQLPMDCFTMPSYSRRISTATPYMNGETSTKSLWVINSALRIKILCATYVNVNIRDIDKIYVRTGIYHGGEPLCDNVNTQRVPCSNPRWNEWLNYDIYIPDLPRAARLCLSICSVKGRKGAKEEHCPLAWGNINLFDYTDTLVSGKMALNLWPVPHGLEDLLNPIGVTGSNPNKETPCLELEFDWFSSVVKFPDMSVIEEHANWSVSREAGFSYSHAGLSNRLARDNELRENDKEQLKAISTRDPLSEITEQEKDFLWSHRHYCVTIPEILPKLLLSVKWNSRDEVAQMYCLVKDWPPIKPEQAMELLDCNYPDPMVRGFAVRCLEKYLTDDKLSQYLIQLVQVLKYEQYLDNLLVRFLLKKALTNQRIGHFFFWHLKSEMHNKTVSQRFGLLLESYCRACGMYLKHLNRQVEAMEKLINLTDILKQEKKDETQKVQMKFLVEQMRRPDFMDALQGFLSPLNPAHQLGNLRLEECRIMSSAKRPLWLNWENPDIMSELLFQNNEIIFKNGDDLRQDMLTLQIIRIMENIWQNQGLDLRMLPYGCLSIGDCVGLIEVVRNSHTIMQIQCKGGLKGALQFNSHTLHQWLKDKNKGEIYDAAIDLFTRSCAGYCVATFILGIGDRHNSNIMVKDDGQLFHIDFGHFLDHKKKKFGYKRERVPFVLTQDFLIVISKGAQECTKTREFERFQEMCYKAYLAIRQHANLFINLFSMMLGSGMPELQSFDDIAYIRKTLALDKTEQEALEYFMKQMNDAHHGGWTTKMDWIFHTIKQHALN
- measurementProtocol: Inhibition of PI3Kalpha mutant human BT474 cells assessed as inhibition of Akt phosphorylation at […] after 2 hrs
- Format: cell-based
- conditionLabel: bt-474
parameterMeasured: IC50 (µM)
Numbers only, in µM.

Below are worked cases with known answers.
> print(dat)
                                   molecule  parametermeasured  outputunit  numericvalue
1  C[C@@H](Nc1cc(F)cc(F)c1)c1cc(C(=O)N2CCC2)cc2c(=O)cc(N3CCOCC3)oc12               IC50          µM          0.28
2  C[C@H](c1cc(C(=O)N(C)CCO)cc2c(=O)cc(N3CCOCC3)oc12)N(C)c1cc(F)cc(F)c1               IC50          µM           4.7
3  C[C@H]1CN(c2cc(=O)c3cc(C(=O)N(C)C)cc([C@@H](C)Nc4cc(F)cc(F)c4)c3o2)CCO1               IC50          µM          0.11
4  CNC(=O)c1cc([C@@H](C)Nc2cc(F)cc(F)c2)c2oc(N3CCOCC3)cc(=O)c2c1               IC50          µM          0.96
5  COc1cc(F)cc(NC(C)c2cc(C(=O)N(C)C)cc3c(=O)cc(N4CCOCC4)oc23)c1 (racemic)               IC50          µM           1.7

Could you tell me IC50 for each of these molecules? They are listed below.
1. CC(Nc1cccc(F)c1F)c1cc(C(=O)N(C)C)cc2c(=O)cc(N3CCOCC3)oc12 (racemic)
2. CN(C)C(=O)c1cc(CNc2cc(F)cc(F)c2)c2oc(N3CCOCC3)cc(=O)c2c1
3. C[C@@H](Nc1cccc(Cl)c1F)c1cc(C(=O)N(C)C)cc2c(=O)cc(N3CCOCC3)oc12
4. CC(Nc1cc(F)cc(F)c1)c1cc(C(=O)N2CCC(O)CC2)cc2c(=O)cc(N3CCOCC3)oc12 (racemic)
5. C[C@H](c1cc(C(=O)N(C)C)cc2c(=O)cc(N3CCOCC3)oc12)N(C)c1cc(F)cc(F)c1
6. CC(Nc1cc(F)cc(F)c1)c1cc(C(=O)N2CCOCC2)cc2c(=O)cc(N3CCOCC3)oc12 (racemic)
7. C[C@H](c1cc(C(=O)N2CCC(O)CC2)cc2c(=O)cc(N3CCOCC3)oc12)N(C)c1cc(F)cc(F)c1

1: 2.2; 2: 3.2; 3: 0.5; 4: 6.4; 5: 3; 6: 6; 7: 4.8

Record IC50 for all entries; do not skip any.
1. COCCN(C)C(=O)c1cc(C(C)Nc2cc(F)cc(F)c2)c2oc(N3CCOCC3)cc(=O)c2c1 (racemic)
2. COCCNC(=O)c1cc(C(C)Nc2cc(F)cc(F)c2)c2oc(N3CCOCC3)cc(=O)c2c1 (racemic)
3. CCN(CC)C(=O)c1cc(C(C)Nc2cc(F)cc(F)c2)c2oc(N3CCOCC3)cc(=O)c2c1 (racemic)
4. C[C@@H](Nc1cc(F)cc(F)c1)c1cc(C(=O)N(C)C)cc2c(=O)cc(N3CCOCC3)oc12
5. C[C@@H](Nc1cc(F)c(F)c(F)c1)c1cc(C(=O)N(C)C)cc2c(=O)cc(N3CCOCC3)oc12

[2.6, 13, 3.2, 0.752, 1.5]

###

Give measured clearance for each item. Keep answers brief.
- measurementProtocol: Clearance in dog at 5 umol/kg, iv administered as bolus dose in 20 to 30% DMA in PBS
- Type: ADME, organism-based, Canis lupus familiaris
- conditionLabel: in vivo
Answers are plain numbers, in mL/min/kg.

> print(dat)
                                   compound  numericvalue
1  C[C@@H](Nc1cc(F)cc(F)c1F)c1cc(C(=O)N(C)C)cc2c(=O)cc(N3CCOCC3)oc12            28

Fill in clearance for each of the 2 compounds listed.
1. C[C@H](c1cc(C(=O)N(C)C)cc2c(=O)cc(N3CCOCC3)oc12)N(C)c1cc(F)cc(F)c1
2. C[C@@H](Nc1cc(F)cc(F)c1)c1cc(C(=O)N(C)C)cc2c(=O)cc(N3CCOCC3)oc12 [AZD-8186]

1: 27; 2: 36

Consider C[C@H]1CN(c2cc(=O)c3cc(C(=O)N(C)C)cc([C@@H](C)Nc4cc(F)cc(F)c4)c3o2)CCO1 . Its measured clearance is 69

###

- measurementProtocol: Fraction unbound in mouse plasma
- Type: ADME, cell-free
parameterMeasured: fraction unbound
Numbers only.

// below: answered compounds
> print(dat)
                             compoundsmiles  numericvalue
1  C[C@H](c1cc(C(=O)N(C)C)cc2c(=O)cc(N3CCOCC3)oc12)N(C)c1cc(F)cc(F)c1           0.1
2  C[C@H]1CN(c2cc(=O)c3cc(C(=O)N(C)C)cc([C@@H](C)Nc4cc(F)cc(F)c4)c3o2)CCO1          0.12
3  C[C@@H](Nc1ccc(F)c(F)c1)c1cc(C(=O)N(C)C)cc2c(=O)cc(N3CCOCC3)oc12          0.25
4  C[C@H](c1cc(C(=O)N2CCC(O)CC2)cc2c(=O)cc(N3CCOCC3)oc12)N(C)c1cc(F)cc(F)c1          0.18
5  C[C@H](c1cc(C(=O)N(C)CCO)cc2c(=O)cc(N3CCOCC3)oc12)N(C)c1cc(F)cc(F)c1          0.15

Hello, I would appreciate it if you could give fraction unbound for each entry below.
1. C[C@@H](Nc1cc(F)cc(Cl)c1)c1cc(C(=O)N(C)C)cc2c(=O)cc(N3CCOCC3)oc12
2. C[C@@H](Nc1cc(F)cc(F)c1)c1cc(C(=O)N(C)C)cc2c(=O)cc(N3CCOCC3)oc12
3. C[C@@H](Nc1cc(F)cc(F)c1F)c1cc(C(=O)N(C)C)cc2c(=O)cc(N3CCOCC3)oc12

1. 0.04
2. 0.16
3. 0.28

###

- studyTarget: Phosphatidylinositol 4,5-bisphosphate 3-kinase catalytic subunit delta isoform (Homo sapiens)
- Sequence (O00329 whole entry, canonical isoform): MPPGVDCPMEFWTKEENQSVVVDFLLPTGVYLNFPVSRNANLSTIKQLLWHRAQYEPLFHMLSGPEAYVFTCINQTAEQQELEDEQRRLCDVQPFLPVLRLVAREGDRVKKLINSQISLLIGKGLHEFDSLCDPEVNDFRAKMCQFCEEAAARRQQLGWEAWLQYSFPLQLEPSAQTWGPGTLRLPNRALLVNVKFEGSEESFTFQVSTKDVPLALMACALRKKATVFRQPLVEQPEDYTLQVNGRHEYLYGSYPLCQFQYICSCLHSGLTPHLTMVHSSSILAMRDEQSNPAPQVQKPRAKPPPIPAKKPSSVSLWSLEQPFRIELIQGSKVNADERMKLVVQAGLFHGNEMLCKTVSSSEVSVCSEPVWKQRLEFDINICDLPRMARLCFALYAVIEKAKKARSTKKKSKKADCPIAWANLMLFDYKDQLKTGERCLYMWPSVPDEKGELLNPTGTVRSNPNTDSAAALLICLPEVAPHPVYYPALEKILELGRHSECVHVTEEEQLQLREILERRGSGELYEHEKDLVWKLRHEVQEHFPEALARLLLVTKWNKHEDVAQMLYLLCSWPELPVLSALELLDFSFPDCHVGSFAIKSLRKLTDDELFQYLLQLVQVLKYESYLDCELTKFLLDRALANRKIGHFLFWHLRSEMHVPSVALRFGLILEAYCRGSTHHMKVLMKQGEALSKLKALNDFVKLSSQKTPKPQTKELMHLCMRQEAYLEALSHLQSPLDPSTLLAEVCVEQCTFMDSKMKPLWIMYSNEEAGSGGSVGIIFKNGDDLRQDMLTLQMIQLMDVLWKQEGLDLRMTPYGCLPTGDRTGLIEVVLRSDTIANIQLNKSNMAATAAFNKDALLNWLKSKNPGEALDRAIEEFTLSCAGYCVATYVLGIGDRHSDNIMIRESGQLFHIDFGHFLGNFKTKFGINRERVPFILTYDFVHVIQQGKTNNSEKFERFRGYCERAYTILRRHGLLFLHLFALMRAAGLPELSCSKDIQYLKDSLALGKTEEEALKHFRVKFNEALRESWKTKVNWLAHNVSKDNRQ
- measurementProtocol: Inhibition of human recombinant PI3Kdelta using PIP2 by Kinase-Glo Plus assay
Assignment: determine reported IC50 for the given molecules.
Give bare numbers, in nM.

# example entries with known answers
> print(dat)
                                   molecule  numericvalue
1  CCN(CC)C(=O)c1cc(C(C)Nc2cc(F)cc(F)c2)c2oc(N3CCOCC3)cc(=O)c2c1 (racemic)            71
2  C[C@@H](Nc1cc(F)cc(F)c1)c1cc(C(=O)N2CCC2)cc2c(=O)cc(N3CCOCC3)oc12            20
3  COCCNC(=O)c1cc(C(C)Nc2cc(F)cc(F)c2)c2oc(N3CCOCC3)cc(=O)c2c1 (racemic)            54
4  C[C@@H](Nc1cc(F)cc(Cl)c1)c1cc(C(=O)N(C)C)cc2c(=O)cc(N3CCOCC3)oc12            28
5  COc1cc(F)cc(NC(C)c2cc(C(=O)N(C)C)cc3c(=O)cc(N4CCOCC4)oc23)c1 (racemic)            61
6  CC(Nc1cc(F)cc(F)c1)c1cc(C(=O)N2CCC(O)CC2)cc2c(=O)cc(N3CCOCC3)oc12 (racemic)            90

Give IC50 for each listed item.
1. CC(Nc1cccc(F)c1)c1cc(C(=O)N(C)C)cc2c(=O)cc(N3CCOCC3)oc12 (racemic)
2. CC(Nc1cc(F)cc(F)c1)c1cc(C(=O)N2CCCC2)cc2c(=O)cc(N3CCOCC3)oc12 (racemic)
3. CC(Nc1cc(F)cc(F)c1)c1cc(C(=O)N2CCOCC2)cc2c(=O)cc(N3CCOCC3)oc12 (racemic)
4. CC(c1cc(C(=O)N2CCCC2)cc2c(=O)cc(N3CCOCC3)oc12)N(C)c1cc(F)cc(F)c1 (racemic)
5. C[C@H](c1cc(C(=O)N(C)CCO)cc2c(=O)cc(N3CCOCC3)oc12)N(C)c1cc(F)cc(F)c1
6. CNC(=O)c1cc([C@@H](C)Nc2cc(F)cc(F)c2)c2oc(N3CCOCC3)cc(=O)c2c1
7. CN(C)C(=O)c1cc(CNc2cc(F)cc(F)c2)c2oc(N3CCOCC3)cc(=O)c2c1

73
50
115
120
53
14
80

Provide IC50 values for the following items, in order.
1. C[C@H](c1cc(C(=O)N(C)C)cc2c(=O)cc(N3CCOCC3)oc12)N(C)c1cc(F)cc(F)c1
2. C[C@H]1CN(c2cc(=O)c3cc(C(=O)N(C)C)cc([C@@H](C)Nc4cc(F)cc(F)c4)c3o2)CCO1
3. C[C@@H](Nc1cc(F)cc(F)c1F)c1cc(C(=O)N(C)C)cc2c(=O)cc(N3CCOCC3)oc12
4. C[C@@H](Nc1cccc(Cl)c1F)c1cc(C(=O)N(C)C)cc2c(=O)cc(N3CCOCC3)oc12

73
12
41
22
